Measured values drawn from patent US20250382359A1 for this set.

Biological target: T1, Human GDF15 Fc (human, UniProt Q99988 195-308, limits assumed, biotinylated (EZ-Link Sulfo-NHS-Biotinylation Kit) in the SPR assay)
T1 construct: also called human GDF15-Fc fusion; biotinylated Human GDF15 Fc; not shown: Fc part
T1 sequence: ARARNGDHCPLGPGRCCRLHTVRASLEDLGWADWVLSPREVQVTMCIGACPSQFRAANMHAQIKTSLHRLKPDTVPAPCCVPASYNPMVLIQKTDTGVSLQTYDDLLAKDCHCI
Assay: BLI Octet; IgG on sensor, 100 nM antigen (avid)
measured-parameter: pKd
Note: pKd values are expressed as the negative base-10 logarithm of concentration in M.

input: Consider the binder shown here: GDF15 antibody agent Clone I, IgG (antibody, V domains shown) VH: QVQLVQSGAEVKKPGASVKVSCKASGYTFTDEGINWVRQAPGQGLEWMGWITAYSGDTVYAQKLQGRVTMTTDTSTSTAYMELRSLRSDDTAVYYCARGPGQYADVDVWGQGTMVTVSS VL: DIQMTQSPSSVSASVGDRVTITCRASQGISSWLAWYQQKPGKAPKLLIYAASSLQSGVPSRFSGSGSGTDFTLTISSLQPEDFATYYCQQANSFPITFGGGTKVEIKR What is its recorded pKd?
output: 9.58

input: Consider the binder shown here: GDF15 antibody agent Clone E, IgG (antibody, V domains shown) VH: QVQLVQSGAEVKKPGASVKVSCKASGYTFTSYGINWVRQAPGQGLEWMGWITAYSGDTNYAQKLQGRVTMTTDTSTSTAYMELRSLRSDDTAVYYCARGPGQYADVDVWGQGTMVTVSS VL: DIQMTQSPSSVSASVGDRVTITCRASQGISSWLAWYQQKPGKAPKLLIYAASSLQSGVPSRFSGSGSGTDFTLTISSLQPEDFATYYCQQANSFPITFGGGTKVEIKR What is its recorded pKd?
output: 9.56
